Target: 5-lipoxygenase (Rattus norvegicus, UniProt P12527)
Construct: The cell-free homogenate was prepared by sonication of the cells followed by centrifugation at 40,000 xg; endogenous in cells; host or cells: RBL-1 (rat basophilic leukemia) cells, 40,000 xg supernatant of the sonicate
Sequence (P12527 1-673): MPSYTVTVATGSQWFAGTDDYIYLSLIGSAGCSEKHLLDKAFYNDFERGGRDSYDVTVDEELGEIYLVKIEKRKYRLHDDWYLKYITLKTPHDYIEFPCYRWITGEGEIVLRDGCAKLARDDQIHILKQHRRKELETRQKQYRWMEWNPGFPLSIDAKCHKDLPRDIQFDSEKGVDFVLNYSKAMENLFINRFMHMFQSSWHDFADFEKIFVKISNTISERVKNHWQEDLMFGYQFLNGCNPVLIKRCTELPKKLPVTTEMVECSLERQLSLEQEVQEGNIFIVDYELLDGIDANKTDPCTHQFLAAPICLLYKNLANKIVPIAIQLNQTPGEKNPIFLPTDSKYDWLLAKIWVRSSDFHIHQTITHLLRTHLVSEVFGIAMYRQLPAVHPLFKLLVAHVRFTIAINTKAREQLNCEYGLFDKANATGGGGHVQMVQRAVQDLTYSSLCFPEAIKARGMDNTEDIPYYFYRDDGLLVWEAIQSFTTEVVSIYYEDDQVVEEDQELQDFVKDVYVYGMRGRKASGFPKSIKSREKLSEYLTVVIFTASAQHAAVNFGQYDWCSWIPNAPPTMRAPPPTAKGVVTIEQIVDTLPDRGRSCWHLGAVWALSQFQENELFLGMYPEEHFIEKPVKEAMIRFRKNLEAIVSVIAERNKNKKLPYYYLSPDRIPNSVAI
Test: Inhibition of 5-lipoxygenase in cell-free homogenate of rat basophilic leukemia (RBL-1) cells
Type: biochemical
Settings: 3 μM; RBL-1 cell-free homogenate; read-out: Inhibition of 5-Lipoxygenase, % Inh. @ 3 μM

- compound: "COc1ccc(CCN(C)C(=O)N(C)O)cc1OC [Example 53]"
  system name: "5-lipoxygenase (Rattus norvegicus, UniProt P12527)"
  unit info: "%"
  inhibition at 3 µM: 0
- compound: "CCCCCCCCCCN(O)C(=O)N(CC)CC [Example 1, N,N-Diethyl-N'-decyl-hydroxyurea]"
  system name: "5-lipoxygenase (Rattus norvegicus, UniProt P12527)"
  unit info: "%"
  inhibition at 3 µM: 100
- compound: "COc1cc(CCNC(=O)N(C)O)cc(OC)c1 [Example 48]"
  system name: "5-lipoxygenase (Rattus norvegicus, UniProt P12527)"
  unit info: "%"
  inhibition at 3 µM: 42
- compound: "COc1cc2c(cc1OC)CCN(C(=O)N(C)O)CC2 [Example 62]"
  system name: "5-lipoxygenase (Rattus norvegicus, UniProt P12527)"
  unit info: "%"
  inhibition at 3 µM: 0
- compound: "COc1cccc(C2CCCN(C(=O)N(C)O)C2)c1 (centres unmarked) [Example 73]"
  system name: "5-lipoxygenase (Rattus norvegicus, UniProt P12527)"
  unit info: "%"
  inhibition at 3 µM: 46
- compound: "CCCCCCCN(O)C(=O)N(C)C [Example 9, N,N-Dimethyl-N'-heptyl-N'-hydroxyurea]"
  system name: "5-lipoxygenase (Rattus norvegicus, UniProt P12527)"
  unit info: "%"
  inhibition at 3 µM: 64
- compound: "CN(O)C(=O)NCCCCCCOc1ccc(-c2ccccc2)cc1 [Example 37]"
  system name: "5-lipoxygenase (Rattus norvegicus, UniProt P12527)"
  unit info: "%"
  inhibition at 3 µM: 65
- compound: "COc1ccc(CCN(C(=O)N(C)O)c2ccc(Cl)cc2)cc1OC [Example 67]"
  system name: "5-lipoxygenase (Rattus norvegicus, UniProt P12527)"
  unit info: "%"
  inhibition at 3 µM: 48
- compound: "COc1ccc(CCNC(=O)N(C)O)cc1O [Example 71]"
  system name: "5-lipoxygenase (Rattus norvegicus, UniProt P12527)"
  unit info: "%"
  inhibition at 3 µM: 5
- compound: "CCCCCCCCCCNC(=O)N(O)CCCC(=O)OCC [Example 19]"
  system name: "5-lipoxygenase (Rattus norvegicus, UniProt P12527)"
  unit info: "%"
  inhibition at 3 µM: 94
- compound: "COc1ccc(CC(C)(C)NC(=O)N(C)O)cc1OC [Example 56]"
  system name: "5-lipoxygenase (Rattus norvegicus, UniProt P12527)"
  unit info: "%"
  inhibition at 3 µM: 3
- compound: "CCCCCCCCCC(C)(C)NC(=O)N(C)O [Example 20]"
  system name: "5-lipoxygenase (Rattus norvegicus, UniProt P12527)"
  unit info: "%"
  inhibition at 3 µM: 65
- compound: "CN(O)C(=O)NCCCCOc1ccc(-c2ccccc2)cc1 [Example 35]"
  system name: "5-lipoxygenase (Rattus norvegicus, UniProt P12527)"
  unit info: "%"
  inhibition at 3 µM: 79
- compound: "COc1ccc(CCCN(CCCc2ccc(OC)c(OC)c2)C(=O)N(C)O)cc1OC [Example 63]"
  system name: "5-lipoxygenase (Rattus norvegicus, UniProt P12527)"
  unit info: "%"
  inhibition at 3 µM: 76
- compound: "CN(O)C(=O)NCCCCCCCOCc1ccccc1 [Example 39]"
  system name: "5-lipoxygenase (Rattus norvegicus, UniProt P12527)"
  unit info: "%"
  inhibition at 3 µM: 100
- compound: "CCCCCCCCCCN(O)C(=O)NCC(=O)OCC [Example 3]"
  system name: "5-lipoxygenase (Rattus norvegicus, UniProt P12527)"
  unit info: "%"
  inhibition at 3 µM: 100
- compound: "COc1cc(CCNC(=O)N(C)O)cc(OC)c1OC [Example 45]"
  system name: "5-lipoxygenase (Rattus norvegicus, UniProt P12527)"
  unit info: "%"
  inhibition at 3 µM: 36
- compound: "COc1cc(CCNC(=O)N(C)O)ccc1O [Example 70]"
  system name: "5-lipoxygenase (Rattus norvegicus, UniProt P12527)"
  unit info: "%"
  inhibition at 3 µM: 39
- compound: "CN(O)C(=O)NCCc1ccc(Cl)c(Cl)c1 [Example 50]"
  system name: "5-lipoxygenase (Rattus norvegicus, UniProt P12527)"
  unit info: "%"
  inhibition at 3 µM: 59
- compound: "C=CCCCCCCCCC(O)CNC(=O)N(C)O (centres unmarked) [Example 21]"
  system name: "5-lipoxygenase (Rattus norvegicus, UniProt P12527)"
  unit info: "%"
  inhibition at 3 µM: 22
- compound: "COc1cc2c(cc1OC)CC(NC(=O)N(C)O)CC2 (centres unmarked) [Example 61]"
  system name: "5-lipoxygenase (Rattus norvegicus, UniProt P12527)"
  unit info: "%"
  inhibition at 3 µM: 73
- compound: "COc1ccc(CCNC(=O)N(OC(C)=O)C(C)(C)C)cc1OC [Example 52]"
  system name: "5-lipoxygenase (Rattus norvegicus, UniProt P12527)"
  unit info: "%"
  inhibition at 3 µM: 9
- compound: "CN(O)C(=O)NCCCCCOc1ccc(-c2ccccc2)cc1 [Example 36]"
  system name: "5-lipoxygenase (Rattus norvegicus, UniProt P12527)"
  unit info: "%"
  inhibition at 3 µM: 67
- compound: "COc1cc2c(cc1OC)CC(NC(=O)N(C)O)C2 [Example 57]"
  system name: "5-lipoxygenase (Rattus norvegicus, UniProt P12527)"
  unit info: "%"
  inhibition at 3 µM: 55
- compound: "CN(O)C(=O)NCc1ccc(-c2ccccc2)cc1 [Example 30]"
  system name: "5-lipoxygenase (Rattus norvegicus, UniProt P12527)"
  unit info: "%"
  inhibition at 3 µM: 74
- compound: "CCCCCCCCCCCCCN(O)C(=O)N(C)C [Example 14, N,N-Dimethyl-N'-tridecyl-N'-hydroxyurea]"
  system name: "5-lipoxygenase (Rattus norvegicus, UniProt P12527)"
  unit info: "%"
  inhibition at 3 µM: 95
- compound: "C=CCCCCCCCCNC(=O)N(C)O [Example 18, N-(9-Decenyl)-N'-methyl-N'-hydroxyurea]"
  system name: "5-lipoxygenase (Rattus norvegicus, UniProt P12527)"
  unit info: "%"
  inhibition at 3 µM: 94
- compound: "CN(O)C(=O)NCCCCCCCOc1ccc(-c2ccccc2)cc1 [Example 38]"
  system name: "5-lipoxygenase (Rattus norvegicus, UniProt P12527)"
  unit info: "%"
  inhibition at 3 µM: 56
- compound: "CCCCCCCCCCC1CN(O)C(=O)N1C (centres unmarked) [Example 28]"
  system name: "5-lipoxygenase (Rattus norvegicus, UniProt P12527)"
  unit info: "%"
  inhibition at 3 µM: 96
- compound: "COc1cc(CCNC(=O)N(C)O)ccc1OCc1ccccc1 [Example 68]"
  system name: "5-lipoxygenase (Rattus norvegicus, UniProt P12527)"
  unit info: "%"
  inhibition at 3 µM: 69
- compound: "CCCCCCCCCCN(O)C(=O)NCCC(=O)OC [Example 4]"
  system name: "5-lipoxygenase (Rattus norvegicus, UniProt P12527)"
  unit info: "%"
  inhibition at 3 µM: 100
- compound: "CN(O)C(=O)NCCc1ccc(-c2ccccc2)cc1 [Example 31]"
  system name: "5-lipoxygenase (Rattus norvegicus, UniProt P12527)"
  unit info: "%"
  inhibition at 3 µM: 39
- compound: "COc1ccc([C@@H]2C[C@H]2NC(=O)N(C)O)cc1OC (relative stereo) [Example 66]"
  system name: "5-lipoxygenase (Rattus norvegicus, UniProt P12527)"
  unit info: "%"
  inhibition at 3 µM: 28
- compound: "CN(O)C(=O)NCCOc1ccc(-c2ccccc2)cc1 [Example 33]"
  system name: "5-lipoxygenase (Rattus norvegicus, UniProt P12527)"
  unit info: "%"
  inhibition at 3 µM: 70
- compound: "CCOC(=O)CCCN(O)C(=O)NCCc1ccc(OC)c(OC)c1 [Example 74]"
  system name: "5-lipoxygenase (Rattus norvegicus, UniProt P12527)"
  unit info: "%"
  inhibition at 3 µM: 42
- compound: "COc1ccc(CCCNC(=O)N(C)O)cc1OC [Example 65]"
  system name: "5-lipoxygenase (Rattus norvegicus, UniProt P12527)"
  unit info: "%"
  inhibition at 3 µM: 19
- compound: "CCCCCCCCCCCN(O)C(=O)N(C)C [Example 12, N,N-Dimethyl-N'-undecyl-N'-hydroxyurea]"
  system name: "5-lipoxygenase (Rattus norvegicus, UniProt P12527)"
  unit info: "%"
  inhibition at 3 µM: 100
- compound: "CN(O)C(=O)NCCc1cccc(Oc2ccccc2)c1 [Example 76]"
  system name: "5-lipoxygenase (Rattus norvegicus, UniProt P12527)"
  unit info: "%"
  inhibition at 3 µM: 66
- compound: "CCCCCCCCCCN(O)C(=O)NCCCC(=O)OC [Example 5]"
  system name: "5-lipoxygenase (Rattus norvegicus, UniProt P12527)"
  unit info: "%"
  inhibition at 3 µM: 100
- compound: "CN(O)C(=O)N1CCC(C(c2ccccc2)c2ccccc2)CC1 [Example 75]"
  system name: "5-lipoxygenase (Rattus norvegicus, UniProt P12527)"
  unit info: "%"
  inhibition at 3 µM: 44
- compound: "COc1ccc(OC)c(CCNC(=O)N(C)O)c1 [Example 47]"
  system name: "5-lipoxygenase (Rattus norvegicus, UniProt P12527)"
  unit info: "%"
  inhibition at 3 µM: 56
